Source of measurements: PubChem BioAssay (NCI)

Kindly state growth for each of the entries shown.
# System: T-47D breast
# experimentalDetails: NCI-60 one-dose screen, 48 h (100 = growth as untreated, 0 = no growth, -100 = all killed)
# settings: 10 µM unless noted
About 83,000 compounds went through this panel and 20% of them were active in at least one assay; those are over-represented in the sample as a whole. Active and inactive are the calls of the source. The calls were made as follows: active = growth percent below 10; inactive = the rest.

compound | growth
O=C(/C(=N/O)S(=O)(=O)c1ccccc1)c1cccs1 | 93.2% (inactive)
CCCc1cc(=O)n2c(C(=O)Nc3ccccc3OC)c(C(=O)Nc3ccc(F)cc3)sc2n1 | 85.4% [30 µM] (inactive)
Cn1c(=O)c2c(nc(Br)n2CCC(=O)Nc2ccc(F)cc2)n(C)c1=O | 97.3% (inactive)
COc1cc2c(cc1OC)C1CCN3C(=O)CCC3N1CC2 (stereo unspecified) | 105% (inactive)
Cc1cc(O)c2c(c1)C[C@H]1[C@@H]3CC[C@H]4CC(=O)CC[C@]4(C)[C@H]3CC(=O)[C@]21C | 67.9% (inactive)

Then there is this compound:
Consider `O=[N+]([O-])c1ccc2c(c1)S(=O)c1cc([N+](=O)[O-])ccc1N2` . Its measured growth is 96.6% (inactive)
